The reported numbers originate from patent US9505730B2.

// reported IC50 for each item listed
Biological target: full-length human Mineralocorticoid Receptor (MR) (Homo sapiens, UniProt P08235)
Sequence (P08235 1-984): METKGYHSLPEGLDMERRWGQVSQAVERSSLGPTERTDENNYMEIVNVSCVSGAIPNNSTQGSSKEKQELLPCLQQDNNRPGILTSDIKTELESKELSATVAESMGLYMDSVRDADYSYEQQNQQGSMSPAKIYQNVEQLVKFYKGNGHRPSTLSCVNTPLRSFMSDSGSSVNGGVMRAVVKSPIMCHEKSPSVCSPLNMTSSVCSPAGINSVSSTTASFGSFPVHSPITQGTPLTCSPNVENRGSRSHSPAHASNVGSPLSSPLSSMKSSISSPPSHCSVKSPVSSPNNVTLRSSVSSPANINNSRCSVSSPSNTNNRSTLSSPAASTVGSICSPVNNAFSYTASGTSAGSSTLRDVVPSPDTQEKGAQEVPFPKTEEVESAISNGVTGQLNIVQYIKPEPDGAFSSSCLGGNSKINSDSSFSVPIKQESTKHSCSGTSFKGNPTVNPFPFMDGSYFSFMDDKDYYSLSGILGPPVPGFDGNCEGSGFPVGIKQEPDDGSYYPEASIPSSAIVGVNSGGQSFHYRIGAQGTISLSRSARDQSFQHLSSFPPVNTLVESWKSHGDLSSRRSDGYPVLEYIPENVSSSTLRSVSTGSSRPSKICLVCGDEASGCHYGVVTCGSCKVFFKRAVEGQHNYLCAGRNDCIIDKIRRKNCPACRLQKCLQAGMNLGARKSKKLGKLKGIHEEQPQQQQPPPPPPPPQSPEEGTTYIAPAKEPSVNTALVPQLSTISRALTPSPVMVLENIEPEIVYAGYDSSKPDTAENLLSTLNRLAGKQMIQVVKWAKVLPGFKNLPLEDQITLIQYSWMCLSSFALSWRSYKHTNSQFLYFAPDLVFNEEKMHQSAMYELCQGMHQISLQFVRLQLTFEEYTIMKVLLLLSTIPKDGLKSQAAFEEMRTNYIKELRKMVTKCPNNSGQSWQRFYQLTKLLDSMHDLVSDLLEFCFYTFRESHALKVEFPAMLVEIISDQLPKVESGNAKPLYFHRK
Experiment: human MR NH Pro assay (PathHunter Protein:Protein interaction assay, MR antagonism)
Settings: PathHunter CHO-K1 cells overexpressing human MR; aldosterone 0.3 nM; 6 hours at 37° C.; luminescence; read-out: IC50 rating
Method: The activity of the compounds of the present invention regarding mineralocorticoid receptor antagonism was evaluated using the following assay. Assessment of Mr Potency in Hmr Nh Pro Assay […] Compounds were assessed for MR antagonist activity by incubating the cells with a titrating dose of compound in F12K w/Glutamine and phenol red culture media (Invitrogen 11765-047) supplemented with 1% Charcoal/Dextran Treated FBS (Hyclone #SH30068.01) and aldosterone (0.3 nM) for 6 hours at 37° C. […]

Observe how each entry below is paired with its result.
1) COc1cc(CNC(=O)C2(Cc3cccc(Cl)c3)OC(=O)N([C@H](C)c3ccccc3)C2=O)cc(OC)c1 (stereo partly shown) | 500 to 4500 nM
2) COc1cc(CNC(=O)[C@@]2(Cc3ccccc3)OC(=O)N([C@@H]3CCc4ccccc43)C2=O)cc(OC)c1 | < 100 nM
3) COc1cc(CNC(=O)[C@@]2(Cc3ccccc3)OC(=O)N([C@H](C)c3ccc(Cl)cc3)C2=O)cc(OC)c1 | < 100 nM

Q: Query (molecule): "C[C@H](C1CCCCC1)N1C(=O)O[C@](Cc2ccccc2)(C(=O)NCc2ccc(Cl)c(Cl)c2)C1=O" ; field requested: IC50
Ans: 100 to 500 nM

Q: Param item = "C[C@H](c1ccc(F)cc1)N1C(=O)O[C@](Cc2ccc(F)cc2)(C(=O)NCc2ccc(Cl)c(Cl)c2)C1=O" ; retrieve measured IC50.
Ans: 100 to 500 nM

Q: Which IC50 is reported for this molecule? "C[C@H](c1ccccc1)N1C(=O)O[C@](Cc2ccccc2)(C(=O)N2CCc3ccccc3C2)C1=O"
Ans: 100 to 500 nM

Q: May I ask what IC50 has been recorded for "C[C@H](c1ccc(F)cc1)N1C(=O)O[C@](Cc2ccccc2)(C(=O)Nc2cccnc2)C1=O" ?
Ans: 100 to 500 nM

Q: Report IC50 for "C[C@H](c1ccccc1)N1C(=O)O[C@](Cc2ccccc2)(C(=O)N[C@H]2C[C@H](c3ccccc3)C2)C1=O" please.
Ans: 100 to 500 nM

Q: Look at this molecule and give its reported IC50. C[C@H](c1ccccc1)N1C(=O)N[C@](Cc2ccccc2)(C(=O)N2CCc3ccccc3C2)C1=O (single isomer, unassigned)
Ans: 500 to 4500 nM
